- Tested on: MCF7
- ASSAY_NOTES: NCI tumour cell line growth inhibition, 48 h
Activity calls are given as the source filed them. Rule as the data show it: active = GI50 up to about 1.1 µM and inactive = higher.
REPORTED_METRIC: GI50

// fetch GI50 given entry NC(CCOCCP(=O)(O)O)C(=O)O (configuration not stated)
> 100 µM (inactive)

Provide one value: measured GI50 of O=C(O)C12C3CCC(O3)C1(C(=O)O)C1CCC2O1 (configuration not stated)
> 100 µM (inactive)

Give the measured GI50 for N/N=C(\N)SCCCCCCCCCCS/C(N)=N/N
23.6 µM (inactive)

Identify GI50 associated with the compound COc1ccc(/N=C2\C(=S)N(c3ccc(OC)cc3)/C(=N/S(=O)(=O)c3ccccc3)N2c2ccccc2)cc1
17 µM (inactive)

Quote GI50 reported for Cc1ccc2c(O)cc(-c3csc4ccccc34)nc2n1 please.
0.0131 µM (active)

State its GI50 for this compound: CSc1nc(SC)c2c(C)cn(Cc3ccccc3)c2n1
45.4 µM (inactive)

Output measured GI50 for this item: Cc1cc2[nH]c3c(C#N)c(-c4ccccc4)c(/N=N/c4ccc(F)cc4)c(=O)n3c2cc1C
> 100 µM (inactive)

Annotate the compound CCOC(=O)c1cn2c(ccc3sc4ccccc4c(=O)c32)n1 with its measured GI50.
84.3 µM (inactive)

Determine from records and report GI50 for COc1ccc(N2C(=O)CS(=O)(=O)C2c2cccc(Oc3ccccc3)c2)cc1 (configuration not stated)
1.87 µM (inactive)

Look up GI50 of C[Si](C)(OCCS(=O)(=O)O)C1(Cc2cccc3ccccc23)S(=O)(=O)OCCOS1(=O)=O and report it.
19.4 µM (inactive)

Given CN(CCCN(C)Cc1ccc(Cl)c(Cl)c1)CCN1CCCC1 , respond with its GI50.
18.4 µM (inactive)

Output GI50 of C=CCC1C(O[Si](C)(C)C(C)(C)C)C(CO[Si](C)(C)C(C)(C)C)OC1n1ccc(=O)[nH]c1=O (configuration not stated)
1.15 µM (inactive)

Fill in GI50 for record CC(=O)c1ccc(/N=N/c2ccc3nonc3c2N)cc1
> 100 µM (inactive)

Return GI50 for the following compound: COc1ccc(CCN2CCN(CCc3ccc(OC)cc3)CC2)cc1
> 100 µM (inactive)

Name the recorded GI50 of the item COc1ccc2c(c1)CC1(O)COc3cc(OC)ccc3C1O2 (configuration not stated) in your answer.
> 100 µM (inactive)

Look up GI50 of COc1ccc(C)cc1NC(=S)N/N=C/c1ccc(SC)cc1 and report it.
> 100 µM (inactive)

Supply recorded GI50 for Nc1nc2c(c(=O)[nH]1)C(c1ccccc1)CC(=O)N2 (configuration not stated) here.
> 100 µM (inactive)

Entry CCOC(=O)Nc1sc2c(c1C#N)CCCC2 needs its GI50 filled in; supply it.
> 100 µM (inactive)

State its GI50 for this compound: O=c1[nH]nc(Nc2ccc(Cl)cc2)c2nnn(C3CCCCC3)c12
58.5 µM (inactive)

Consider the compound COc1cc(C2C(Cl)C(=O)N2NC(=O)c2ccc(NC(C)=O)cc2OC)ccc1O (configuration not stated) and give its recorded GI50.
19.3 µM (inactive)

Identify measured GI50 associated with O=c1oc2ccc(Cl)cc2cc1-c1cn2ccccc2n1
24.5 µM (inactive)

Tell us which GI50 value is on record for CCCCCCCCCCCCOCC(COP(=O)(O)OCCN=[N+]=[N-])OC(=O)CCCCCCCCCCC (configuration not stated)
> 100 µM (inactive)

###

- Test system: NCI-H226
- ASSAY_NOTES: NCI tumour cell line growth inhibition, 48 h
The source made the active and inactive calls. Cut-off read from the data, not from the text of the source: active = GI50 up to about 1.1 µM and inactive = higher.
REPORTED_METRIC: GI50

Tell us which GI50 value is on record for CCC/C(Cl)=N\OC(=O)Nc1cccc(C(F)(F)F)c1
20.5 µM (inactive)

Report GI50, nothing else, for this compound: Cc1cc2[nH]c3c(C#N)c(-c4ccccc4)c(/N=N/c4ccc(F)cc4)c(=O)n3c2cc1C
> 100 µM (inactive)

Report GI50 for CCc1c(OC(C)=O)c2c(NC3OCC(OC(C)=O)C(OC(C)=O)C3OC(C)=O)nc(SC)nc2oc1=O (stereo not drawn)
> 100 µM (inactive)

Return GI50 (reported value) for this compound: CC1(C)CCCC2(C)C3C(O)CC2(C)C(O)C31 (stereo not drawn)
> 100 µM (inactive)

Specify reported GI50 for the compound shown: CCOC(=O)c1cn2c(ccc3sc4ccccc4c(=O)c32)n1
> 100 µM (inactive)

Given the compound CN(C)C(=S)/N=c1\ss/c(=N\C(=S)N(C)C)n1-c1ccc2c(c1)OCO2 , write its reported GI50.
> 100 µM (inactive)

Please supply the value of reported GI50 for the item C1=CC2=CC=CC3c4nc5ccc6ccccc6c5nc4C(=C1)C23 (stereo not drawn)
> 100 µM (inactive)

Return GI50 for the following compound: Oc1ccccc1C(c1cc2c(cc1O)OCO2)N1CCOCC1 (stereo not drawn)
35.6 µM (inactive)

Indicate its recorded GI50; the compound in question is COC(OC)C1OCC(n2cc(F)c(=O)[nH]c2=O)C1O (stereo not drawn)
> 100 µM (inactive)

Write down GI50 measured for item Cc1ccc(/C=N/Nc2cc(C)c3cccc(C)c3n2)s1
9.02 µM (inactive)

Consider the compound N=S(=O)(c1ccccc1)c1ccccc1 and give its recorded GI50.
> 100 µM (inactive)

State, in one line, measured GI50 of C=C1C(=O)C23CC1CCC2C12CO[C@H](O)[C@H]1C(C)(C)[C@H](OC(C)=O)C[C@H]2OC3=O (stereo partly drawn)
> 100 µM (inactive)

Given COc1cc(/C=C/C(=O)N[C@@H]2C(=O)N3[C@@H]2SC(C)(C)[C@@H]3C(=O)O)ccc1O , respond with its GI50.
> 100 µM (inactive)

Assign GI50 to the following record: COc1ccc(NC(=O)CSc2nc(C)nc3c2sc(=S)n3-c2ccccc2)cc1
6.85 µM (inactive)

Look up GI50 of O=C1NC(=O)C2(CCc3ccc(N(CCCl)CCCl)cc32)N1 (stereo not drawn) and report it.
2.08 µM (inactive)

Answer with reported GI50 of O=c1cc(-c2ccccc2)oc2cc(Oc3nnnn3-c3ccccc3)ccc12
9.42 µM (inactive)

State its GI50: CCn1c2nc(=O)n(CCCCCCCCSC(c3ccccc3)(c3ccccc3)c3ccccc3)c(=O)c-2nc2ccccc21
> 100 µM (inactive)

Fill in reported GI50 for this entry: N[C@H](C(=O)O)[C@H]1ON=C(Cl)[C@@H]1O
45.1 µM (inactive)

Quick one: give measured GI50 for COC(=O)CC(NC(=O)OCc1ccccc1)C(C(C)=O)C(=O)OCc1ccccc1 (stereo not drawn)
> 10 µM (inactive)

Check the records and state GI50 for COc1ccc(CCNC(=O)c2ccccc2C2c3ccc(OCc4ccccc4)cc3Oc3cc(OCc4ccccc4)ccc32)cc1OC
> 100 µM (inactive)

Supply recorded GI50 for CN(C)/C(=N/C(=O)Nc1ccccc1)SCc1ccccc1 here.
> 100 µM (inactive)

Give the measured GI50 for Cn1nc(N)nc1N=S(C)(C)=N
72.4 µM (inactive)

Input COc1ccc(N2C(=O)CS(=O)(=O)C2c2cccc(Oc3ccccc3)c2)cc1 (stereo not drawn) , output reported GI50.
4.79 µM (inactive)

Report measured GI50; entry is O=C1/C(=C\c2ccc(Cl)cc2Cl)Sc2scc(-c3cccc([N+](=O)[O-])c3)[n+]21
13.5 µM (inactive)

Read the entry COc1ccc(CCN2CCN(CCc3ccc(OC)cc3)CC2)cc1 and write its reported GI50.
> 100 µM (inactive)

Note down GI50 recorded for CCCCn1c(CSc2ccc(Cl)cc2)c(C(=O)OCC)c2cc(OC)c(Br)cc21
> 100 µM (inactive)

Fill in reported GI50 for this entry: Cc1ccc(/N=c2/oc3c(ccc4ccccc43)nc2Nc2ccc(C)cc2)cc1
> 100 µM (inactive)

Return GI50 for the following compound: CCN1CCC(O)(c2ccccc2)C(C(=O)c2ccccc2)C1 (stereo not drawn)
> 54.1 µM (inactive)

Return GI50 (reported value) for this compound: COC(=O)C1=COC(C)C2C[n+]3ccc4c([nH]c5ccccc54)c3CC12 (stereo not drawn)
44.9 µM (inactive)

Give the value of GI50 reported for the following: C#CCOc1c(C(=O)OCC)c(=O)n(C)c2ccccc12
> 100 µM (inactive)

Given CC(=O)N[C@@H](Cc1ccc(O)cn1)C(=O)NCc1ccc(Cl)cc1 , respond with its GI50.
> 100 µM (inactive)

Output measured GI50 for this item: COc1cc2c[n+](C)c3c4cc(OC)c(OC(C)C)cc4ccc3c2cc1OC
98.4 µM (inactive)

Give a short answer stating reported GI50 for O=C1c2ccccc2C(=O)c2sc(Nc3ccc(Cl)cc3)nc21 .
7.53 µM (inactive)

Quickly give me recorded GI50 for COC(=O)c1c(O)ccc2c1c1cc3ccccc3c(O)c1n2CCc1ccc(OC)c(OC)c1
> 100 µM (inactive)

Name the recorded GI50 of the item c1ccc(CNCCCNCCCCNCCCNCc2ccccc2)cc1 in your answer.
4.68 µM (inactive)

Quote GI50 reported for CC(C)(C)OC(=O)c1cnc(Cl)cn1 please.
34.9 µM (inactive)

Check the records and state GI50 for COc1ccc2c(c1)CC1(O)COc3cc(OC)ccc3C1O2 (stereo not drawn)
> 100 µM (inactive)

Please look at this compound and report its GI50: OCC1OC(c2ccccc2)CC1O (stereo not drawn)
> 100 µM (inactive)

For the compound CN/C(=N\CCSCc1nc[nH]c1C)NC#N , give its reported GI50.
> 100 µM (inactive)

Read the entry CN(CC1(CO)CCC1)c1cc(Cl)nc(N)n1 and write its reported GI50.
> 100 µM (inactive)

Tell me measured GI50 for COc1cc(C)c(/C=C2/N=C(c3ccccc3)OC2=O)c([N+](=O)[O-])c1OC please.
> 100 µM (inactive)

Write down GI50 measured for item [O-][n+]1nc(N2CCOCC2)nc2ccccc21
> 100 µM (inactive)

Return GI50 (reported value) for this compound: Cc1ccc(S(=O)(=O)N/N=C(/CC(=O)c2c(C)[n+]([O-])c3ccccc3[n+]2[O-])C(=O)Nc2ccc(C)c(C)c2)cc1
> 100 µM (inactive)
